# Measured On: T1, Human MAGEB2 (Melanoma-associated antigen B2) (human, UniProt O15479 1-319)
# T1 construct: Intracellular antigen detected by IHC in FFPE material: CHO cells transfected with human MAGEB2 (mCherry vector with Myc/DDK tags, or ORF without tags)
# T1 sequence: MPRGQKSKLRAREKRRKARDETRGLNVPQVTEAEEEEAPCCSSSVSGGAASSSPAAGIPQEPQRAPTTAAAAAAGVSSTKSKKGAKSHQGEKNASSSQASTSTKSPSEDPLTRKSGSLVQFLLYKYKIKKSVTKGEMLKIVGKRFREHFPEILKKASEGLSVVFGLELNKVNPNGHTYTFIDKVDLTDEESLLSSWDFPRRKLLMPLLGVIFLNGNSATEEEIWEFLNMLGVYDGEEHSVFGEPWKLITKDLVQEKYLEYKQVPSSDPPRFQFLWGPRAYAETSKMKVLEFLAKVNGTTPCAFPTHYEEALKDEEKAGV
# Assay Comment: IHC on FFPE NCI-H82 cells (endogenous MAGEB2)

{"columns": ["Binder", "Unit Label", "IHC % Frequency"],
 "data": [
  ["4G17 (antibody, IgG1, V domains shown, Rabbit monoclonal IgG1; Tested as supernatant and as small batch purified antibody; also called MAGE-B2 (4G17); anti-MAGEB2 antibody 4G17) VH: QSLEESGGGLVQPEGSLTLTCTASGVTLSNYYICWVRQAPGKGLEWIGCIDNVNGRTYYASWAKGRFTISKTSSTTGTLQMTSLTAADTATYFCARSLATPLWGPGTLVTVSS VL: DIVMTQTPASVEAAVGGTVTIKCQASQNIDSYLAWYQQKPGQPPKLLIYRASTLASGVPSRFKGSGSGTEFTLTISDLECADAATYYCQSYDDSRSSSFFYGFGGGTEVVVK", "%", 0]
]}
